For each record, write down the corresponding TGI.
System: MDA-MB-231 breast
Method: NCI tumour cell line growth inhibition, 48 h

QUERY: What value of TGI has been reported for the following compound? CC(=O)c1ccc(NC(=O)CSc2nc(C)nc3c2sc(=S)n3-c2ccccc2)cc1
RESULT: > 3.16 µM

QUERY: What value of TGI has been reported for the following compound? Nc1ncc(/C=N/O)c(NCC2(CO)CC(CCc3ccccc3)C2)n1 (centres undefined)
RESULT: 21.8 µM

QUERY: What value of TGI has been reported for the following compound? CN(C)C/C=C/C(=O)Nc1ccc(C(=O)N2CCC[C@@H](Nc3ncc(Cl)c(-c4c[nH]c5ccccc45)n3)C2)cc1
RESULT: 6.71 µM

QUERY: What value of TGI has been reported for the following compound? Fc1cc(-c2nnc3n2N=C(c2ccc(Cl)cc2Cl)CS3)c(Cl)cc1Cl
RESULT: > 100 µM

QUERY: What value of TGI has been reported for the following compound? Cc1cc(S(=O)(=O)O)c(NC(=O)c2oc3cc(O)ccc3c(=O)c2C)cc1Cl
RESULT: > 100 µM

QUERY: What value of TGI has been reported for the following compound? COc1ccc2cc(-c3c(-c4ccncc4)nc(-c4ccc(S(C)=O)cc4C)n3C)ccc2c1 (centres undefined)
RESULT: > 25 µM

QUERY: What value of TGI has been reported for the following compound? CC[C@H](C)[C@H](NC(=O)[C@H]1CCCCN1C)C(=O)N(C)[C@H](C[C@@H](OC(C)=O)c1nc(C(=O)N[C@@H](Cc2ccccc2)C[C@H](C)C(=O)OC)cs1)C(C)C
RESULT: > 25 µM

QUERY: What value of TGI has been reported for the following compound? C/C(=N\Nc1ccccc1)C(CN(C)C)C(c1ccccc1)c1c(O)c2ccccc2oc1=O (centres undefined)
RESULT: > 100 µM

QUERY: What value of TGI has been reported for the following compound? CC(C)CCCC(C)[C@H]1CC[C@H]2N=C(Nc3ccccc3)CCC[C@]12C (some centres undefined)
RESULT: 3.04 µM

----------
Tested on: A549 NSCLC
Method: NCI tumour cell line growth inhibition, 48 h
Measured Parameter: GI50

QUERY: What value of GI50 has been reported for the following compound? c1ccc(CC(NCCNC(Cc2ccccc2)c2ccccc2)c2ccccc2)cc1 (stereo unspecified)
RESULT: 1.1 µM

QUERY: What value of GI50 has been reported for the following compound? O=c1[nH]c2cc(Cl)c(Cl)cc2n2cc3ccccc3c12
RESULT: 18.9 µM

QUERY: What value of GI50 has been reported for the following compound? CN(C)CCCC1(c2ccc(F)cc2)OCc2cc(-c3cncc4ccccc34)ccc21 (stereo unspecified)
RESULT: 3.92 µM

QUERY: What value of GI50 has been reported for the following compound? Cn1cnc([N+](=O)[O-])c1Sc1nc(N)nc2nc[nH]c12
RESULT: 13.1 µM

QUERY: What value of GI50 has been reported for the following compound? CCN(CC)CCOc1ccc(/C=C2\CC3C4CC=C5C[C@@H](OC(C)=O)CC[C@]5(C)C4CC[C@]3(C)C2=O)cc1OC (stereo partly specified)
RESULT: 17.7 µM

QUERY: What value of GI50 has been reported for the following compound? Cc1cc(=O)oc2cc(OCCn3c(C)nn(-c4ccc(Cl)cc4)c3=O)ccc12
RESULT: 6.07 µM
